B1: Peroxisome proliferator-activated receptor delta, residues 71 to 145; numbered along this chain, Q03181 (parent)
chain: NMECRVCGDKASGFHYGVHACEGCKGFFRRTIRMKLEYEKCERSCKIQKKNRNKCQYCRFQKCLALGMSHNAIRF

variants of: B1; assay: abundance fitness (aPCA) (normalised: wild type 0, dead -1); higher = more abundant; growth selection in yeast, the domain comes from the species named; conditions: Homo sapiens
Label t when abundance fitness is at or above -0.3; otherwise label f.

Below are worked cases with known answers.
* NMECRVCGDKAKGFHYGVHACEGCKGFFRRTIRMKLEYEKCERSCKIQKKNRNKCQYCRFQKCLALGMSHNAIRF [S12K] | t
* NMECRVYGDKASGFHYGVHACEGCKGFFRRTIRMKLEYEKCERSCKIQKKNRNKCQYCRFQKCLALGMSHNAIRF [C7Y] | f

Kindly review the next variant as well.
query: Entry NMECRVCGDKASGFHYGVHACELCKGFFRRTIRMKLEYEKCERSCKIQKKNRNKCQYCRFQKCLALGMSHNAIRF [G23L] : is its abundance fitness no less than -0.3?
result: t
